- TEST TARGET: αvβ1 (Homo sapiens, UniProt P05556+P06756)
- Construct: host or cells: A549
- Sequence (P06756 31-889 limits assumed): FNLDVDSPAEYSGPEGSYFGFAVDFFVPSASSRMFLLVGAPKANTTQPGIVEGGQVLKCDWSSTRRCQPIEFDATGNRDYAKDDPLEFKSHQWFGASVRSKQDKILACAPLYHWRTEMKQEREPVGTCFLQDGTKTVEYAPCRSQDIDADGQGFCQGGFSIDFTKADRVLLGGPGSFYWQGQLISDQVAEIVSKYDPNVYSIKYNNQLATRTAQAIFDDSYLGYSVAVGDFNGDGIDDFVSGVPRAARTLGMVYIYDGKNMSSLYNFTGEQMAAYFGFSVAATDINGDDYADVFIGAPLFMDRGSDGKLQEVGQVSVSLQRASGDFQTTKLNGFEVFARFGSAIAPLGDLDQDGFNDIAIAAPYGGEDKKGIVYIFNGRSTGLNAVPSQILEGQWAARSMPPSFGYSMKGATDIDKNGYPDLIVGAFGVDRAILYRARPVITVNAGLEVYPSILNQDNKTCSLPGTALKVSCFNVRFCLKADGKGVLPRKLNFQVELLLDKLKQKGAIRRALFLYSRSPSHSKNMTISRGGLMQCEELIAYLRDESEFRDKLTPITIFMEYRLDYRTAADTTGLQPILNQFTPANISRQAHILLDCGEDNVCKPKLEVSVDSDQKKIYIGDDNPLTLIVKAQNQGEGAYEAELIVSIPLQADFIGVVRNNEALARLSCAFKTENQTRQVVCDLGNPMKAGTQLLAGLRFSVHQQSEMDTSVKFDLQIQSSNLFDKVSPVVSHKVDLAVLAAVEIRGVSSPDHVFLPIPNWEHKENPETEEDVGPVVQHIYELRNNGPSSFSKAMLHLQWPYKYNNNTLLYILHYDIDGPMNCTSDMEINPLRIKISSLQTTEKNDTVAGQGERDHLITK
- Sequence (P06756 891-1048 partner limits assumed): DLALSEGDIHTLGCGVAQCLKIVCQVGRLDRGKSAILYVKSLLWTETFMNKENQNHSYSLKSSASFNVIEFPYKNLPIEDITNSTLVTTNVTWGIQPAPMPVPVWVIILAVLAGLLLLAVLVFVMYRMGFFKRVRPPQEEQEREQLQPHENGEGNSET
- Sequence (P05556 21-798): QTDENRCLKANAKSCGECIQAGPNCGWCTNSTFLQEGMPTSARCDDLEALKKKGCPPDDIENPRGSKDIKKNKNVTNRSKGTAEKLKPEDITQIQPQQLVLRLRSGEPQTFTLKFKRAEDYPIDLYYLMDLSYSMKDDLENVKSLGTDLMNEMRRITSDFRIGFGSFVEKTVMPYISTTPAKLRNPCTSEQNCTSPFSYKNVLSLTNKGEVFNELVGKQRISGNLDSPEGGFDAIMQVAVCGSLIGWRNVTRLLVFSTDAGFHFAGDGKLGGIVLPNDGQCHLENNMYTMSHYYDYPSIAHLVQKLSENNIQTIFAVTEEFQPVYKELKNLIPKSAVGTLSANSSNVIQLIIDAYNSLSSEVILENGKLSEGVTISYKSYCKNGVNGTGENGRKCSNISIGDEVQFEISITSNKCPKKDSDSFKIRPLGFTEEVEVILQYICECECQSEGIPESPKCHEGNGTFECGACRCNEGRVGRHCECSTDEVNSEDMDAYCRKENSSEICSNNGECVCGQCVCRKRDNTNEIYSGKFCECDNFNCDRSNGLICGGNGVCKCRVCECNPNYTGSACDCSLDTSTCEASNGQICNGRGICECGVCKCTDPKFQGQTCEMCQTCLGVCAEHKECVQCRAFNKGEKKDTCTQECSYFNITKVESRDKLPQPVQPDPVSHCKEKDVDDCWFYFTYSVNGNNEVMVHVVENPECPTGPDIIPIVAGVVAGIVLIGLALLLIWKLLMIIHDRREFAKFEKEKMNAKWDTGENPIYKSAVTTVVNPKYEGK
- TEST PROTOCOL: Cell adhesion assay, A549-αvβ1 (LAP-b1)
- Type: cell-based
- CONDITION DETAILS: A549-αvβ1 cells, ligand LAP-b1, 2 mM MgCl2; mean; read-out: αvβ1 pIC50 (mean affinity, cell Adhesion Assay) (converted)
Hi! Could you tag entries with IC50 below 200 nM as true, and those at or above as false? Much appreciated.

molecule="COCCOc1cc(OCCF)cc(C(CC(=O)O)CN2CC[C@@](F)(CCc3ccc4c(n3)NCCC4)C2)c1 (some centres unmarked)" test_target="αvβ1 (Homo sapiens, UniProt P05556+P06756)" cat=true
molecule="O=C(O)C[C@H](CN1CC[C@@](F)(CCc2ccc3c(n2)NCCC3)C1)c1cccc(C2CCOC2)c1 (single isomer, unassigned; isomer 1) [Example 10]" test_target="αvβ1 (Homo sapiens, UniProt P05556+P06756)" cat=false
molecule=O=C(O)C[C@H](CN1CC[C@@](F)(CCc2ccc3c(n2)NCCC3)C1)c1cccc(OC2COC2)c1 test_target="αvβ1 (Homo sapiens, UniProt P05556+P06756)" cat=false
molecule="O=C(O)C[C@H](CN1CC[C@@](F)(CCc2ccc3c(n2)NCCC3)C1)c1cccc(C2CCOC2)c1 (single isomer, unassigned; isomer 2) [Example 11]" test_target="αvβ1 (Homo sapiens, UniProt P05556+P06756)" cat=true
molecule="COCCOc1ccc(F)c(C(CC(=O)O)CN2CC[C@@](F)(CCc3ccc4c(n3)NCCC4)C2)c1 (some centres unmarked)" test_target="αvβ1 (Homo sapiens, UniProt P05556+P06756)" cat=false
molecule=O=C(O)C[C@H](CN1CC[C@@](F)(CCc2ccc3c(n2)NCCC3)C1)c1cccc(OC2CCOCC2)c1 test_target="αvβ1 (Homo sapiens, UniProt P05556+P06756)" cat=false
molecule=O=C(O)C[C@H](CN1CC[C@@](F)(CCc2ccc3c(n2)NCCC3)C1)c1cccc(O[C@H]2CCOC2)c1 test_target="αvβ1 (Homo sapiens, UniProt P05556+P06756)" cat=true
